assay: protein stability index of a GFP-peptide fusion (yeast GPS) (PSI 1-4); higher = more stable; sorted into four equal gates, so the index is relative within each strain; settings: san1∆
Assay endpoint: protein stability index
Kindly provide the number alone.

{"Chain sequence": "NETIIDNFSPHQNVIIG [SMC3]", "protein stability index": 2.29}
{"Chain sequence": "VLIANDVDPIELVVFLP [RPL8A]", "protein stability index": 3.13}
{"Chain sequence": "YQLYTSNPSGNYTGWKA [PRE9]", "protein stability index": 3.14}
{"Chain sequence": "LKTLVQGPRSYFLDVKC [RPS27A]", "protein stability index": 2.72}
{"Chain sequence": "HSLAYLLENFANFKTSK [RRP6]", "protein stability index": 2.81}
{"Chain sequence": "YIHLAYSRSVDKEWVFA [SSN2]", "protein stability index": 1.84}

Please report the recorded protein stability index for AVVFKPFKGEVVDGTVV [RPB7] .
2.79

For DNGLGPLKYAPHLPFSK [SWI3] then?
2.85

For DRNNSTNQIFQSRRYNL [SIN4] then?
2.71

For NFLLPDIFGDSELFDEW [ISW2] then?
2.79

For LGKKKNVKEEETVAKSK [RPS8A] then?
3.33

For YMHDTELNYFVGCKNLE [GRR1] then?
3.08

For HENYIQDDDFPLDDAGT [MCD1] then?
2.99

For IDGKTVSYKDYSIFLEN [SMC1] then?
2.85

For QSKKLIEEKLSSFSKKT [YIL149C/MLP2] then?
2.98

For DPKSPTKRSIAIVFEEI [YMR129W/POM152] then?
2.77

For NYTKDNEYYPMCEQALS [YCS4] then?
2.6

For NWSKEDLQKLLKGIQEF [SWI3] then?
3.09

For NDFKKIGRENENENEDD [POP5] then?
3.16

For NCEYEDPPNEGDPFDYK [RPB3] then?
3.36

For ALSGLYYKNFHNSVKRY [SNM1] then?
1.17

For GELVLDIEVPDVNALKF [SNF12] then?
2.77

For VTKWTNQLTESASHFEQ [YJL041W/NSP1] then?
3.16

For KVISSDARGVIGVIAGG [RPL2A] then?
2.85

----------
protein stability index: recorded values
experiment: protein stability index of a GFP-peptide fusion (yeast GPS) (PSI 1-4); higher = more stable; sorted into four equal gates, so the index is relative within each strain; details: pdr5∆
Kindly provide the number alone.

{"Chain sequence": "ITKEVTQVNILKENNAI [YIL149C/MLP2]", "protein stability index": 3.14}

From here, focus on the item given below.
Please report the recorded protein stability index for LGSSEAENLLQLKTGLA [YGL172W/NUP49] .
3.29

----------
test: protein stability index of a GFP-peptide fusion (yeast GPS) (PSI 1-4); higher = more stable; sorted into four equal gates, so the index is relative within each strain; conditions: ubr1∆
Assay endpoint: protein stability index
Kindly provide the number alone.

{"Chain sequence": "DTNVVLQAIDLLENPNC [DIS3]", "protein stability index": 2.73}

Please report the recorded protein stability index for DGIVVKNAVVRSKFGGD [ARP7] .
3.56

For SNEEQRNLDSATLKEIK [SMC3] then?
3.48

For KKTRIIPRHLQLAIRND [HTA1] then?
2.05

For DAFVATAFATEFFVQVL [DLS1] then?
3.09

For AHKLKKSLDSIPMSKTI [FAS2] then?
2.8

For DGGLEEETDEVSSESSD [SIR3] then?
3.24

For IDADSLEDIYTSAHEAI [RPL5] then?
3.13

For KLANFFSKKGNEPLSEI [YAR002W/NUP60] then?
3.13

For AIVVGWRAIIKAIFPNT [FAS1] then?
2.33

For RESFEDNVVRFLNEARD [RPO21] then?
2.92

For EVDVCDKCGLMGYSGWC [RET1] then?
2.39

For RSLRATAEERVGRRAAN [RPL15A] then?
2.95

For SNSVFSPDGRNFQVEYA [PRE10] then?
2.79

For TKFNHNKEKSNSPTSFF [YOR098C/NUP1] then?
2.53

For PAFTFGAQKDNEKKTEE [YJL041W/NSP1] then?
3.46
